- assaySystem: Peroxisome proliferator-activated receptor alpha (Mus musculus, UniProt P23204)
- Sequence (P23204 whole entry): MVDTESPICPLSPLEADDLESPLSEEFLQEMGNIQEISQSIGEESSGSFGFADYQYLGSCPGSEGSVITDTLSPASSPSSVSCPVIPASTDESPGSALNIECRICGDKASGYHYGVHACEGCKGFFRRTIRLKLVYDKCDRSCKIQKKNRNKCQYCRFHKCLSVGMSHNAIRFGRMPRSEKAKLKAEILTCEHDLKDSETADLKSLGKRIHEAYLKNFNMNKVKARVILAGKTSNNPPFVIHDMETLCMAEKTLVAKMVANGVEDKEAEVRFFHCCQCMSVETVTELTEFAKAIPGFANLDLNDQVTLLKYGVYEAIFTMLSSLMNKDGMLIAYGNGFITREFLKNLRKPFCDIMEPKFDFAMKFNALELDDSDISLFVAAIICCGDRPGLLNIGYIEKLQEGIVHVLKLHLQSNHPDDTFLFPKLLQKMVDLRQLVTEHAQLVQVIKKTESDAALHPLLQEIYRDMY
- testSummary: Agonist activity at mouse PPARalpha transfected in HEK293 cells
pEC50: −log10 of the molar value.

compound: CC[C@@H](Cc1ccc(OC)c(CNC(=O)c2ccc(C(F)(F)F)c(F)c2)c1)C(=O)O
pEC50: 6.00

###

Listed next: entries and their corresponding EC50.
- assaySystem: Peroxisome proliferator-activated receptor delta (Homo sapiens, UniProt Q03181)
- Sequence (Q03181 whole entry): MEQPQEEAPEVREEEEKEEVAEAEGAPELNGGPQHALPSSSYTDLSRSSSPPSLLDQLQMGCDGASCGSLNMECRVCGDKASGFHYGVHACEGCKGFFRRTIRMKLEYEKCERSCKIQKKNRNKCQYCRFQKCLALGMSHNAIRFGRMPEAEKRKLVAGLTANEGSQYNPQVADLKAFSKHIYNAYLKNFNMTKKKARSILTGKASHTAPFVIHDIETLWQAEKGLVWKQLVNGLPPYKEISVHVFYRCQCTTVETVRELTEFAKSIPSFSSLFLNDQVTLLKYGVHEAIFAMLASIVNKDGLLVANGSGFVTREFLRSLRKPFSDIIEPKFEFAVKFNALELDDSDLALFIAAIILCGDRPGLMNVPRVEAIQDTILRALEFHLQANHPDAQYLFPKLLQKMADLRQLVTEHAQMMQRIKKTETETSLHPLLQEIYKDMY
- testSummary: Agonist activity at PPARdelta transfected in HEK293 cells
- Type: functional, cell-based
measurementName: EC50 (nM)

compound: CCC(Cc1ccc(OC)c(C(=O)NCc2ccc(C(F)(F)F)cc2F)c1)C(=O)O (stereo unspecified)
measurementName: EC50
measurementUnits: nM
experimentalValue: 1000
--
compound: CCC(Cc1ccc(OC)c(C(=O)NCc2ccc(C(F)(F)F)cc2)c1)C(=O)O (racemic)
measurementName: EC50
measurementUnits: nM
experimentalValue: 700
--
compound: CCC(Cc1ccc(OC)c(CNC(=O)c2ccc(C(F)(F)F)cc2)c1)C(=O)O (stereo unspecified)
measurementName: EC50
measurementUnits: nM
experimentalValue: 130
--
compound: CC[C@H](Cc1ccc(OC)c(CNC(=O)c2ccc(C(F)(F)F)c(F)c2)c1)C(=O)O
measurementName: EC50
measurementUnits: nM
experimentalValue: 700
--
compound: CCC(Cc1ccc(OC)c(C(=O)NCc2ccc(C(F)(F)F)c(F)c2)c1)C(=O)O (stereo unspecified)
measurementName: EC50
measurementUnits: nM
experimentalValue: 500
--
compound: CC[C@@H](Cc1ccc(OC)c(CNC(=O)c2ccc(C(F)(F)F)c(F)c2)c1)C(=O)O
measurementName: EC50
measurementUnits: nM
experimentalValue: 40

###

- assaySystem: Peroxisome proliferator-activated receptor delta (Mus musculus, UniProt P35396)
- Sequence (P35396 whole entry): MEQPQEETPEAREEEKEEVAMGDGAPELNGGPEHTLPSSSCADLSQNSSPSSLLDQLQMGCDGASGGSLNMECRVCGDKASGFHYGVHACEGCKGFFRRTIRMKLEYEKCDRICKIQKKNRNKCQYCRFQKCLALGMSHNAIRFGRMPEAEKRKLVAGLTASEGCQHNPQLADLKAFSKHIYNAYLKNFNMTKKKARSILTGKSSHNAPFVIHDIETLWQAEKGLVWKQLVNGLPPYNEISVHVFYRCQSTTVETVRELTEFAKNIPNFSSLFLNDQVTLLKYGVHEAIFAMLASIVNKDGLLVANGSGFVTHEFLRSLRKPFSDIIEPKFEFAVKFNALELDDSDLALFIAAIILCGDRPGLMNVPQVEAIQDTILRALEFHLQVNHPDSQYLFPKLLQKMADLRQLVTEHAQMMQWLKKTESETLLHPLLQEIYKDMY
- testSummary: Agonist activity at mouse PPARdelta transfected in HEK293 cells

compound: CC[C@@H](Cc1ccc(OC)c(CNC(=O)c2ccc(C(F)(F)F)c(F)c2)c1)C(=O)O
EC50 / nM: 130

###

- assaySystem: Peroxisome proliferator-activated receptor alpha (Homo sapiens, UniProt Q07869, I272F)
- Sequence (Q07869 whole entry I272F, the tested form may be a part): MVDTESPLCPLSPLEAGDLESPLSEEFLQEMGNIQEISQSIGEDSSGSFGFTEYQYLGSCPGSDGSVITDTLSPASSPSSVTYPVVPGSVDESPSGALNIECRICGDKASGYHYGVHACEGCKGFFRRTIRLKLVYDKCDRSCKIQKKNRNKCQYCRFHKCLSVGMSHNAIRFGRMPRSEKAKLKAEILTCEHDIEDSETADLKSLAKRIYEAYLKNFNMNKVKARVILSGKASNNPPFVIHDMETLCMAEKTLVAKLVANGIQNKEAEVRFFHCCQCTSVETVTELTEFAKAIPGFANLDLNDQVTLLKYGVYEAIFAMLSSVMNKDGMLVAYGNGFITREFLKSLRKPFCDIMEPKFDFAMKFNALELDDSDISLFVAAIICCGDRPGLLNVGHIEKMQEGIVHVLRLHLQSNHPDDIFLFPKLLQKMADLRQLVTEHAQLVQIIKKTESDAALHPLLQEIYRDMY
- testSummary: Agonist activity at human PPARalpha containing mutant I272F domain transfected in HEK293 cells
pEC50: −log10 of the molar value.

compound: CC[C@@H](Cc1ccc(OC)c(CNC(=O)c2ccc(C(F)(F)F)c(F)c2)c1)C(=O)O
pEC50: 6.20

###

Listed next: entries and their corresponding pEC50.
- assaySystem: Peroxisome proliferator-activated receptor gamma (Homo sapiens, UniProt P37231)
- Sequence (P37231 whole entry): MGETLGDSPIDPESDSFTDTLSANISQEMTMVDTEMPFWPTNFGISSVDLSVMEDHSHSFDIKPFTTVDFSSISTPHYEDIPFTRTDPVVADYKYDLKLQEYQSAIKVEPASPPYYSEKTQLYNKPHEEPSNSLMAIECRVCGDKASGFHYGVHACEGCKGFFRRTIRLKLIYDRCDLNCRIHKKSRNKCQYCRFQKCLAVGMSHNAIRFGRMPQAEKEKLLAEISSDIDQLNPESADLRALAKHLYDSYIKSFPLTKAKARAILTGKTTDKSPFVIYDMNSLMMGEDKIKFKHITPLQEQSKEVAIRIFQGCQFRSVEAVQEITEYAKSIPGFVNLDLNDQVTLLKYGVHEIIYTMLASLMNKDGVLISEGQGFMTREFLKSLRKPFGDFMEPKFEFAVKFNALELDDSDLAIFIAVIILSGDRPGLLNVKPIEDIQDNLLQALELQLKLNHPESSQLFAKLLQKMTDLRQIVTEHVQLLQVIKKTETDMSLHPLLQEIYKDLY
- testSummary: Agonist activity at PPARgamma transfected in HEK293 cells
- Assay type: functional, cell-based
pEC50: −log10 of the molar value.

compound: CCC(Cc1ccc(OC)c(C(=O)NCc2ccc(C(F)(F)F)c(F)c2)c1)C(=O)O (stereo not given)
assaySystem: Peroxisome proliferator-activated receptor gamma (Homo sapiens, UniProt P37231)
relationOperator: =
pEC50: 5.80
//
compound: CC[C@H](Cc1ccc(OC)c(CNC(=O)c2ccc(C(F)(F)F)c(F)c2)c1)C(=O)O
assaySystem: Peroxisome proliferator-activated receptor gamma (Homo sapiens, UniProt P37231)
relationOperator: <
pEC50: 5.00
//
compound: CCC(Cc1ccc(OC)c(CNC(=O)c2ccc(F)c(C(F)(F)F)c2)c1)C(=O)O (stereo not given)
assaySystem: Peroxisome proliferator-activated receptor gamma (Homo sapiens, UniProt P37231)
relationOperator: <
pEC50: 5.00
//
compound: CCC(Cc1ccc(OC)c(CNC(=O)c2ccc(C(F)(F)F)cc2)c1)C(=O)O (stereo not given)
assaySystem: Peroxisome proliferator-activated receptor gamma (Homo sapiens, UniProt P37231)
relationOperator: =
pEC50: 5.70
//
compound: CCC(Cc1ccc(OC)c(C(=O)NCc2ccc(C(F)(F)F)cc2F)c1)C(=O)O (stereo not given)
assaySystem: Peroxisome proliferator-activated receptor gamma (Homo sapiens, UniProt P37231)
relationOperator: =
pEC50: 6.30

###

- assaySystem: Peroxisome proliferator-activated receptor alpha (Homo sapiens)
- testSummary: Agonist activity at PPARalpha transfected in HEK293 cells
- Assay type: functional, cell-based
measurementName: log10(EC50) (log10 of the value in nM)

molecule: CC[C@@H](Cc1ccc(OC)c(CNC(=O)c2ccc(C(F)(F)F)c(F)c2)c1)C(=O)O
experimentalValue: 1.00
//
molecule: CCC(Cc1ccc(OC)c(C(=O)NCc2ccc(C(F)(F)F)cc2F)c1)C(=O)O (stereo unspecified)
experimentalValue: 1.30
//
molecule: CCC(Cc1ccc(OC)c(C(=O)NCc2ccc(C(F)(F)F)c(F)c2)c1)C(=O)O (stereo unspecified)
experimentalValue: 1.40
//
molecule: CCC(Cc1ccc(OC)c(CNC(=O)c2ccc(C(F)(F)F)cc2)c1)C(=O)O (stereo unspecified)
experimentalValue: 1.00
//
molecule: CCC(Cc1ccc(OC)c(C(=O)NCc2ccc(C(F)(F)F)cc2)c1)C(=O)O (racemic)
experimentalValue: 1.85
//
molecule: CC[C@H](Cc1ccc(OC)c(CNC(=O)c2ccc(C(F)(F)F)c(F)c2)c1)C(=O)O
experimentalValue: 2.26

From: ChEMBL document CHEMBL1149404
